Numbers sourced from ChEMBL document CHEMBL1136527.

- System: Geranylgeranyl transferase type I (Candida albicans)
- Experimental details: Inhibition of Candida albicans Geranylgeranyl transferase type I
pIC50: −log10 of the molar value.
Assay readout: pIC50

[
  {
    "Compound smiles": "COC(=O)[C@H](CC(C)C)NC(=O)C1(c2ccccc2)CCN(C(=O)[C@@H](N)CS)CC1",
    "System": "Geranylgeranyl transferase type I (Candida albicans)",
    "Assay readout": "pIC50",
    "Value operator": "=",
    "Observed result": 8.30
  },
  {
    "Compound smiles": "CC(C)C[C@H](NC(=O)C1(c2ccccc2)CCN(C(=O)[C@@H](N)CS)CC1)C(=O)O",
    "System": "Geranylgeranyl transferase type I (Candida albicans)",
    "Assay readout": "pIC50",
    "Value operator": ">",
    "Observed result": 8.30
  },
  {
    "Compound smiles": "CC(C)C[C@H](NC(=O)C1(c2ccccc2)CCN(C(=O)[C@@H](N)CS)CC1)C(=O)N[C@@H](C)C(=O)O",
    "System": "Geranylgeranyl transferase type I (Candida albicans)",
    "Assay readout": "pIC50",
    "Value operator": "=",
    "Observed result": 8.00
  }
]

* * *

- System: Protein farnesyltransferase (Candida albicans)
- Experimental details: Inhibition of Candida albicans Farnesyltransferase
Below is a list of entries, each paired with its recorded IC50 value.

[
  {
    "Compound smiles": "CC(C)C[C@H](NC(=O)C1(c2ccccc2)CCN(C(=O)[C@@H](N)CS)CC1)C(=O)N[C@@H](C)C(=O)O",
    "IC50": "3000 nM"
  },
  {
    "Compound smiles": "CC(C)C[C@H](NC(=O)C1(c2ccccc2)CCN(C(=O)[C@@H](N)CS)CC1)C(=O)O",
    "IC50": "200 nM"
  }
]
